- System: C. glabrata ATCC 15126
- setupConditions: ATCC 15126, 24 h
Where a SMILES comes first, the peptide text is derived from it. Side-chain parts run from the residue outwards. The star is where a group is joined. Lauroyl = CCCCCCCCCCCC(=O)*
valueType: MIC C. glabrata ATCC 15126 (µg/mL)
Record the value in µg/mL, omitting the unit from your answer.

Q: Dear colleague, I am looking for the recorded MIC C. glabrata ATCC 15126 of the following molecule: CCCCCCCCCCCC(=O)N[C@@H](CCCNC(=N)N)C(=O)N[C@@H](CCCNC(=N)N)C(=O)NCCCC[C@H](NC(=O)[C@H](CCCNC(=N)N)NC(=O)[C@H](CCCNC(=N)N)NC(=O)CCCCCCCCCCC)C(N)=O [Compound B3] (Lauroyl-Arg-Arg-Lys([Arg-Arg-Lauroyl])-NH2)
Result: 2

Q: Continue with CCCCCCC(CCCC)C(=O)N[C@@H](CCCNC(=N)N)C(=O)N[C@@H](CCCNC(=N)N)C(=O)N[C@@H](CSSC[C@H](NC(=O)[C@H](CCCNC(=N)N)NC(=O)[C@H](CCCNC(=N)N)NC(=O)C(CCCC)CCCCCC)C(N)=O)C(N)=O (stereo partly drawn) [Compound C7]
Result: 16

Q: Continue with CCCCCCCCCCCC(=O)N[C@@H](CCCNC(=N)N)C(=O)N[C@@H](CCCNC(=N)N)C(N)=O [Compound A3, C12-RR-NH2] (Lauroyl-Arg-Arg-NH2)
Result: 128
